The reader will find reported % Blocking values listed item by item below.
target: T1, human CCR8 (human, UniProt P51685 1-355); assay: flow blocking, PBMC CCR8+CD4+; competitor PE-AB10
T1 construct: Native CCR8 on human PBMC (CCR8+ CD3+ or CCR8+ CD4+ lymphocytes); also called chemokine (C-C motif) receptor 8
T1 sequence (P51685 whole entry): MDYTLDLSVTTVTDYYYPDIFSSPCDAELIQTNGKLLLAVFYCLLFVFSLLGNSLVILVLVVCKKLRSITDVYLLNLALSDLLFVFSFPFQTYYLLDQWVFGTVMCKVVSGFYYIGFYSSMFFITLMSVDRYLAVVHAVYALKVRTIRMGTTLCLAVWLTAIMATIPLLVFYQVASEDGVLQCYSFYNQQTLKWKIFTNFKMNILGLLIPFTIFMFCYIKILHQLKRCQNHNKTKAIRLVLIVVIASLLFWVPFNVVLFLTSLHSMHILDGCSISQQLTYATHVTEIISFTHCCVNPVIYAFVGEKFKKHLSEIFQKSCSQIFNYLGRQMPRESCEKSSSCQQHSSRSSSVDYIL
Please state the figure in %; there is no need to write the unit.

Example cases with answers are listed next.
| BINDER | ENDPOINT UNIT | MEAS VALUE |
| --- | --- | --- |
| AB1 (antibody, V domains shown, Hybridoma monoclonal (mouse or rat); Same VH/VL entries as AB2; also called antibody 1; clone 1) VH: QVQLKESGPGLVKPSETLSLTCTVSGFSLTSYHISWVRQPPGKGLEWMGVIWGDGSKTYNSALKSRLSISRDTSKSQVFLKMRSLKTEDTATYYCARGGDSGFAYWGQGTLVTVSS VL: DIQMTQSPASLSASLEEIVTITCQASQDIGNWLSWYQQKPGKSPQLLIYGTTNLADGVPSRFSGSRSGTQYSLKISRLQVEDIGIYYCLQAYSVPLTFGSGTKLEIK | % | 3.38 |
| AB2 (antibody, V domains shown, Hybridoma monoclonal; Same VH/VL entries as AB1; also called antibody 2; clone 2) VH: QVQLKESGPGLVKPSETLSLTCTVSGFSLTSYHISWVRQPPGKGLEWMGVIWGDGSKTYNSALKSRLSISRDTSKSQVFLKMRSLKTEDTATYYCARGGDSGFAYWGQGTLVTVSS VL: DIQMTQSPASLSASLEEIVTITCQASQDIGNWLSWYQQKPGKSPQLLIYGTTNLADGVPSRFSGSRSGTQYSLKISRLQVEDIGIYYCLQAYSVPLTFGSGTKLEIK | % | 2.7 |

Enquiry: Bench note: what % Blocking did AB8 (antibody, V domains shown, Hybridoma monoclonal; also called antibody 8; clone 8) VH: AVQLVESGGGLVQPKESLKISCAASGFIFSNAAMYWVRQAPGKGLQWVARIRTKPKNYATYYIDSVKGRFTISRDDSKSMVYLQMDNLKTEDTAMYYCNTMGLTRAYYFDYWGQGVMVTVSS VL: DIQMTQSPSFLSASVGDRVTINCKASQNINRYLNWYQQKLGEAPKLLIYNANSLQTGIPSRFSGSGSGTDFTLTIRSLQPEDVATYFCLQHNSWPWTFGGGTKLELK show?
Return: 91.2

Enquiry: Bench note: what % Blocking did AB4 (antibody, V domains shown, Hybridoma monoclonal; also called antibody 4; clone 4) VH: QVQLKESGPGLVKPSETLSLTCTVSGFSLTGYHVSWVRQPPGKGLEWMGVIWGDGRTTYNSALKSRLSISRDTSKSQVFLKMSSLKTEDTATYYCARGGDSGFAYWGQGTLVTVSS VL: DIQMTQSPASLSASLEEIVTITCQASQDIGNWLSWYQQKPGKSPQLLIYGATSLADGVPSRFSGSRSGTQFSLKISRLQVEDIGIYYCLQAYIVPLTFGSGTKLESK show?
Return: 0.68

Enquiry: Bench note: what % Blocking did AB5 (antibody, V domains shown, Hybridoma monoclonal; Same VH/VL entries as AB6; also called antibody 5; clone 5) VH: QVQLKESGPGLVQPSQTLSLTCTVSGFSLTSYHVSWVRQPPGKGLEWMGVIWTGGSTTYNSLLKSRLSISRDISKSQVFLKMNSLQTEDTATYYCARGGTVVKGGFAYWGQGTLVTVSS VL: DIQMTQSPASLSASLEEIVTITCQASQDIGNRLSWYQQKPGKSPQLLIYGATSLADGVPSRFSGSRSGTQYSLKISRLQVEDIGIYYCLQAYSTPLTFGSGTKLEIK show?
Return: 5.41
